assay: Non-reducing SDS-PAGE thermostability, oligomeric forms after boiling; assay type: physicochemical; conditions: boiled 20 minutes
measured_parameter: Monomeric form, relative proportion (percentage)

INSERT INTO measurements (molecule, measured_parameter, unit_symbol, observed) VALUES
  ('AVR2: Recombinant chicken avidin-related protein 2, produced in Sf9 insect cells (protein, UniProt P56732 25-150, looked up) Avidin-related protein 2: ARKCSLTGEWDNDLGSIMTIGAVNDNGEFDGTYITAVADNPGNITLSPLLGIQHKRASQPTFGFTVHWNFSESTSVFVGQCFVDRSGKEVLKTKWLQRLAVDDISDDWIATRVGNNDFTRQHTVEE', 'Monomeric form, relative proportion', 'percentage', 100);
